biological target: AgRvs167; assay: SPOT peptide array binding signal intensity (averaged, normalized) (arbitrary units (background-subtracted, floor 0; scale differs between SH3 domains)); higher = stronger binding of the SH3 domain to the peptide
# SPOT peptide array binding signal intensity per entry
Answer using only a numeral; do not append any unit.

Example entries begin here.
{"Binder": "NFKRLLPRDPSEKSS", "Numeric result": 2}
{"Binder": "RKLRTVPGVPLIHLT", "Numeric result": 2}
{"Binder": "TYNRTAFQIPGDQSI", "Numeric result": 1}

GET /value?item= VSKLRSPNTPRRLRK &field=SPOT peptide array binding signal intensity returns 9.83

Form field SPOT peptide array binding signal intensity, entry FPGKKSPRLPHRNKK : 12

SPOT peptide array binding signal intensity measured on DHPKGPPPPPPPDEK = 1.17

Per the record, EREKALPPIPFTTTL has SPOT peptide array binding signal intensity of 0.333

// data source = the supplement of paper PMC4466140
